# assay-summary: in vitro
# run-parameters: human, lung S9 fraction, t1/2
# Description: Stability in human lung S9 fraction assessed as half-life at 1 uM incubated for 60 mins by LC-MS/MS analysis
readout-kind: half-life at 1 h, 1 µM (h)
A number alone suffices; assume h.

# compound O=C(NCCCCNC[C@H](O)c1ccc(O)c2[nH]c(=O)ccc12)c1ccc(CNC2(C(=O)OCC3CCN(Cc4ccccc4)CC3)CCc3ccccc32)s1 (mixture of isomers; 32) ; its half-life at 1 h, 1 µM = 1.62

###

# assay-summary: in vitro
# run-parameters: human, hepatocytes
# Description: Metabolic stability in human hepatocytes assessed as clearance measured per 10^6 cells at 1 uM incubated for 90 mins by LC-MS/MS analysis
Entries and their measured hepatocyte CLint at 1.5 h, 1 µM follow.
State just the number; it will be interpreted in µL/min/1e6 cells.

Here are 4 compounds together with their reported answers.
# smiles-input, readout-kind, value-units, test-result
rows = [
    ("CN1CCC[C@@H](OC(=O)[C@](O)(c2ccccc2)c2cccc(OCCCNC(=O)c3ccc(CNC[C@H](O)c4ccc(O)c5[nH]c(=O)ccc45)c(F)c3)c2)C1.O=CO", "hepatocyte CLint at 1.5 h, 1 µM", "µL/min/1e6 cells", 6),
    ("COc1cc(C(=O)NCCCOc2cccc([C@](O)(C(=O)O[C@@H]3CCCN(C)C3)c3ccccc3)c2)c(Cl)cc1CNC[C@H](O)c1ccc(O)c2[nH]c(=O)ccc12", "hepatocyte CLint at 1.5 h, 1 µM", "µL/min/1e6 cells", 6),
    ("O=C(NCCCOc1cccc([C@](O)(C(=O)OCC2CCN(Cc3ccccc3)CC2)c2ccccc2)c1)c1ccc(CNC[C@H](O)c2ccc(O)c3[nH]c(=O)ccc23)cc1", "hepatocyte CLint at 1.5 h, 1 µM", "µL/min/1e6 cells", 25),
    ("O=C(NCCCOc1cccc([C@](O)(C(=O)O[C@@H]2CCN(Cc3ccccc3)C2)c2ccccc2)c1)c1ccc(CNC[C@H](O)c2ccc(O)c3[nH]c(=O)ccc23)cc1", "hepatocyte CLint at 1.5 h, 1 µM", "µL/min/1e6 cells", 23),
]

Moving on to another compound below.
What the record says about `O=C(NCCCOc1cccc([C@](O)(C(=O)OC2CCN(Cc3ccccc3)CC2)c2ccccc2)c1)c1ccc(CNC[C@H](O)c2ccc(O)c3[nH]c(=O)ccc23)cc1` : hepatocyte CLint at 1.5 h, 1 µM is 12

###

# assay-summary: in vitro
# run-parameters: rat, plasma
# Description: Stability in rat plasma assessed as half-life at 5 uM incubated for 120 mins by LC-MS/MS analysis
Cut-off 20 min on half-life at 2 h, 5 µM: below means fulfilled, at or above means not fulfilled.

# smiles-input, answer-label
records = [
    ("COc1cc(C(=O)NCCCOc2cccc([C@](O)(C(=O)OCC3CCN(CC4CC4)CC3)c3ccccc3)c2)c(F)cc1CNC[C@H](O)c1ccc(O)c2[nH]c(=O)ccc12.O=CO.O=CO", "fulfilled"),
]

Below 20 min on half-life at 2 h, 5 µM? Entry `Cc1cc(C(=O)NCCCOc2cccc([C@](O)(C(=O)O[C@@H]3CCCN(C)C3)c3ccccc3)c2)c(C)cc1CNC[C@H](O)c1ccc(O)c2[nH]c(=O)ccc12`
not fulfilled

Quick check: half-life at 2 h, 5 µM of `O=C(NCCCOc1cccc([C@](O)(C(=O)O[C@H]2CCN(Cc3ccccc3)C2)c2ccccc2)c1)c1ccc(CNC[C@H](O)c2ccc(O)c3[nH]c(=O)ccc23)cc1` under 20 min?
fulfilled

###

# assay-summary: in vivo
# run-parameters: male, Dunkin-Hartley, guinea pig, inhaled or intranasal, 1 mM
# Description: Toxicity in male albino Dunkin-Hartley guinea pig model assessed as inhibition of carbachol-induced salivation at 1 mM, preadministered with compound for 10 mins via aerosol followed by anesthesia treatment 3 hrs post compound addition and further treated with carbachol and measured every 5 mins for 4 times
readout-kind: inhibition at 3.167 h, 1000 µM (%)
Kindly provide the numeric value in % only, without the unit symbol.

The recorded inhibition at 3.167 h, 1000 µM for `CN1CCC[C@@H](OC(=O)[C@](O)(c2ccccc2)c2cccc(OCCCNC(=O)c3ccc(CNC[C@H](O)c4ccc(O)c5[nH]c(=O)ccc45)cc3)c2)C1` is 33

###

# assay-summary: in vitro
# run-parameters: human, hepatocytes
# key: entry, value: hepatocyte CLint at 1.5 h, 1 µM

A selection of reference data follows.
# smiles-input, hepatocyte CLint at 1.5 h, 1 µM
measured = [
    ("O=C(NCCCOc1cccc([C@](O)(C(=O)OCC2CCN(C3CCCC3)CC2)c2ccccc2)c1)c1ccc(CNC[C@H](O)c2ccc(O)c3[nH]c(=O)ccc23)cc1", "5 µL/min/1e6 cells"),
    ("COc1cc(C(=O)NCCCOc2cccc([C@](O)(C(=O)OCC3CCN(CC4CC4)CC3)c3ccccc3)c2)c(F)cc1CNC[C@H](O)c1ccc(O)c2[nH]c(=O)ccc12.O=CO.O=CO", "9 µL/min/1e6 cells"),
]

Record `CN1CCC[C@@H](OC(=O)[C@](O)(c2ccccc2)c2cccc(OCCCNC(=O)c3cnc(CNC[C@H](O)c4ccc(O)c5[nH]c(=O)ccc45)nc3)c2)C1.O=CO` , field hepatocyte CLint at 1.5 h, 1 µM: < 2 µL/min/1e6 cells

// `CN1CCC[C@@H](OC(=O)[C@](O)(c2ccccc2)c2cccc(OCCCNC(=O)c3ccc(CNC[C@H](O)c4ccc(O)c5[nH]c(=O)ccc45)cc3)c2)C1` : hepatocyte CLint at 1.5 h, 1 µM value = 3 µL/min/1e6 cells

Kindly note the recorded hepatocyte CLint at 1.5 h, 1 µM for `O=C(NCCCOc1cccc([C@](O)(C(=O)OC[C@H]2CCN(Cc3ccccc3)C2)c2ccccc2)c1)c1ccc(CNC[C@H](O)c2ccc(O)c3[nH]c(=O)ccc23)cc1` , which is 7 µL/min/1e6 cells

hepatocyte CLint at 1.5 h, 1 µM reading for `O=C(NCCCOc1cccc([C@](O)(C(=O)O[C@@H]2CCCN(Cc3ccccc3)C2)c2ccccc2)c1)c1ccc(CNC[C@H](O)c2ccc(O)c3[nH]c(=O)ccc23)cc1.O=CO` : 20 µL/min/1e6 cells

###

Measurement record for Muscarinic acetylcholine receptor M3 (Homo sapiens); quantity recorded: pKi.
# pKi: negative log10 of molar concentration; output just the value

# count of solved cases: 3
# molecule, test-result
records = [
    ("O=C(c1ccc(OCc2ccc(CNC[C@H](O)c3ccc(O)c4[nH]c(=O)ccc34)cc2)cc1)N1CC(C(=O)OC2CN3CCC2CC3)(c2ccccc2)C1 (single isomer, unassigned)", 9.50),
    ("O=C(NCCCOc1cccc([C@](O)(C(=O)OCC2CCN(C3CCCC3)CC2)c2ccccc2)c1)c1ccc(CNC[C@H](O)c2ccc(O)c3[nH]c(=O)ccc23)cc1", 8.80),
    ("O=C(NCCCOc1cccc([C@@](O)(C(=O)OCC2CCN(Cc3ccccc3)CC2)c2ccccc2)c1)c1ccc(CNCC(O)c2ccc(O)c3[nH]c(=O)ccc23)cc1 (some centres undefined)", 8.00),
]

Below: the item to evaluate.
Known value: Muscarinic acetylcholine receptor M3 (Homo sapiens) pKi of the molecule `CN1CCC(COC(=O)[C@](O)(c2ccccc2)c2cccc(OCCCNC(=O)c3ccc(CNC[C@H](O)c4ccc(O)c5[nH]c(=O)ccc45)cc3)c2)CC1` equals 9.30

###

# assay-summary: in vitro
# run-parameters: rat, hepatocytes
# Description: Metabolic stability in rat hepatocytes assessed as clearance measured per 10^6 cells at 1 uM incubated for 90 mins by LC-MS/MS analysis
readout-kind: hepatocyte CLint at 1.5 h, 1 µM
# do not omit the unit; it follows the number

Item: `CN1CCC[C@@H](OC(=O)[C@](O)(c2ccccc2)c2cccc(OCCCNC(=O)c3ccc(CNC[C@H](O)c4ccc(O)c5[nH]c(=O)ccc45)cc3)c2)C1` | hepatocyte CLint at 1.5 h, 1 µM: 12 µL/min/1e6 cells

Reported hepatocyte CLint at 1.5 h, 1 µM ( O=C(NCCCOc1cccc([C@@](O)(C(=O)OCC2CCN(Cc3ccccc3)CC2)c2ccccc2)c1)c1ccc(CNCC(O)c2ccc(O)c3[nH]c(=O)ccc23)cc1 (stereo not given in full) ) = 33 µL/min/1e6 cells

Entry `O=C(NCCCOc1cccc([C@](O)(C(=O)O[C@@H]2CCN(Cc3ccccc3)C2)c2ccccc2)c1)c1ccc(CNC[C@H](O)c2ccc(O)c3[nH]c(=O)ccc23)cc1` — recorded hepatocyte CLint at 1.5 h, 1 µM = 69 µL/min/1e6 cells

So, `O=C(NCCCOc1cccc([C@](O)(C(=O)OC[C@@H]2CCN(Cc3ccccc3)C2)c2ccccc2)c1)c1ccc(CNC[C@H](O)c2ccc(O)c3[nH]c(=O)ccc23)cc1` ? Its hepatocyte CLint at 1.5 h, 1 µM was 37 µL/min/1e6 cells

Item: `O=C(NCCCOc1cccc([C@](O)(C(=O)O[C@H]2CCCN(Cc3ccccc3)C2)c2ccccc2)c1)c1ccc(CNC[C@H](O)c2ccc(O)c3[nH]c(=O)ccc23)cc1.O=CO` | hepatocyte CLint at 1.5 h, 1 µM: 53 µL/min/1e6 cells

###

# assay-summary: Protein binding in rat plasma at 5 uM incubated for 4 hrs by LC-MS/MS analysis
readout-kind: fraction unbound at 4 h, 5 µM
Format: numeric value only, no unit, no commentary.

Lookup result for O=C(c1ccc(OCc2ccc(CNC[C@H](O)c3ccc(O)c4[nH]c(=O)ccc34)cc2)cc1)N1CCC(C(=O)OC2CN3CCC2CC3)(c2ccccc2)CC1 (single isomer, unassigned) ; measured fraction unbound at 4 h, 5 µM: 0.15

###

# assayed-target: UniProtKB P07550
# Sequence (P07550 whole entry): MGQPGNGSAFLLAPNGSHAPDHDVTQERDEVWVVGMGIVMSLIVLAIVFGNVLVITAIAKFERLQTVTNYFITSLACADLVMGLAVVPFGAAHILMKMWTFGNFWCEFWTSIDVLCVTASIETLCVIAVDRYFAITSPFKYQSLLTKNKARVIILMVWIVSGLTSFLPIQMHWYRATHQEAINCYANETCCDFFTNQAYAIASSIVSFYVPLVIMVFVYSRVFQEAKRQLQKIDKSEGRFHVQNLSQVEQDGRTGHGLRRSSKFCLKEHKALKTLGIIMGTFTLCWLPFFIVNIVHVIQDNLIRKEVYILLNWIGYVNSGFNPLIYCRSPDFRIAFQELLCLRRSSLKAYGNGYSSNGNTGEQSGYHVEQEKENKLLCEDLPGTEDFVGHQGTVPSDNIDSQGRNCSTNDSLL
Measured pKi by item
A value of pKi is the negative decimal logarithm of a concentration given in moles per litre.

# molecule, pKi
records = [
    ("O=C(c1ccc(CCNC[C@H](O)c2ccc(O)c3[nH]c(=O)ccc23)cc1)N1CCC(c2cccc([C@](O)(C(=O)OCC3CCN(Cc4ccccc4)CC3)c3ccccc3)c2)CC1", 9.40),
]

UniProtKB P07550 data for O=C(NCCCCNC[C@H](O)c1ccc(O)c2[nH]c(=O)ccc12)c1ccc(CNC2(C(=O)OCC3CCN(Cc4ccccc4)CC3)CCc3ccccc32)s1 (mixture of isomers; 33) ; its pKi: 10.50

Reference source for all entries: ChEMBL document CHEMBL5500396
